Tested system: PI3Kδ (p110δ/p85α) Recombinant Human Protein (Homo sapiens (Human), UniProt O00329)
Sequence (O00329 whole entry): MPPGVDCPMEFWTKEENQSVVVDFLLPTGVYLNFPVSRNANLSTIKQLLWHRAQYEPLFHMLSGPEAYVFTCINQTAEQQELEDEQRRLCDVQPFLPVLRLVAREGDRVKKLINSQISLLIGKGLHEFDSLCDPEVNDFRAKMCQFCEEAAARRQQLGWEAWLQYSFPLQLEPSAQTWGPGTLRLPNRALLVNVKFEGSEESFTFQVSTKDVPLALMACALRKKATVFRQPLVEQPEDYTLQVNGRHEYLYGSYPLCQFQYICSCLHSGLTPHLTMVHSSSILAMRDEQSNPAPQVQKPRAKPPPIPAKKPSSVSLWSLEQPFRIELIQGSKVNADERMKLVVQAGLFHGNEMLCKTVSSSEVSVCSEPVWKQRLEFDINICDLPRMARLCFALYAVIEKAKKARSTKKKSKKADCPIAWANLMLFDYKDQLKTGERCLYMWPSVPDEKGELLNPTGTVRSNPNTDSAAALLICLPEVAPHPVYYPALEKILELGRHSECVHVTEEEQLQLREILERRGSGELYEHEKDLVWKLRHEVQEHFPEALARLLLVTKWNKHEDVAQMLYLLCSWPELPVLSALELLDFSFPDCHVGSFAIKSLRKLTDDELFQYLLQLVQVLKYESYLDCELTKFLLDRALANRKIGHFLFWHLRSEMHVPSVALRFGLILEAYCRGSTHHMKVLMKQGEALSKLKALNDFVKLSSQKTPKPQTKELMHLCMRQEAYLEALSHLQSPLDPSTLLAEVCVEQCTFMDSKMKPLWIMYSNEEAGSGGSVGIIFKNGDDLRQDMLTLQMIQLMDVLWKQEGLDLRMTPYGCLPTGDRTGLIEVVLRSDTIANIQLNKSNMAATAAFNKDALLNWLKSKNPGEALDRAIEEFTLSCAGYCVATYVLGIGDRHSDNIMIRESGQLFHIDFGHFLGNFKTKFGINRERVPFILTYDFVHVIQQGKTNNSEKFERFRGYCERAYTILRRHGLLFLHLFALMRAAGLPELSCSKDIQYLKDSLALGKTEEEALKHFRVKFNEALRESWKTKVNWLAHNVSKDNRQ
Sequence (P27986 whole entry partner): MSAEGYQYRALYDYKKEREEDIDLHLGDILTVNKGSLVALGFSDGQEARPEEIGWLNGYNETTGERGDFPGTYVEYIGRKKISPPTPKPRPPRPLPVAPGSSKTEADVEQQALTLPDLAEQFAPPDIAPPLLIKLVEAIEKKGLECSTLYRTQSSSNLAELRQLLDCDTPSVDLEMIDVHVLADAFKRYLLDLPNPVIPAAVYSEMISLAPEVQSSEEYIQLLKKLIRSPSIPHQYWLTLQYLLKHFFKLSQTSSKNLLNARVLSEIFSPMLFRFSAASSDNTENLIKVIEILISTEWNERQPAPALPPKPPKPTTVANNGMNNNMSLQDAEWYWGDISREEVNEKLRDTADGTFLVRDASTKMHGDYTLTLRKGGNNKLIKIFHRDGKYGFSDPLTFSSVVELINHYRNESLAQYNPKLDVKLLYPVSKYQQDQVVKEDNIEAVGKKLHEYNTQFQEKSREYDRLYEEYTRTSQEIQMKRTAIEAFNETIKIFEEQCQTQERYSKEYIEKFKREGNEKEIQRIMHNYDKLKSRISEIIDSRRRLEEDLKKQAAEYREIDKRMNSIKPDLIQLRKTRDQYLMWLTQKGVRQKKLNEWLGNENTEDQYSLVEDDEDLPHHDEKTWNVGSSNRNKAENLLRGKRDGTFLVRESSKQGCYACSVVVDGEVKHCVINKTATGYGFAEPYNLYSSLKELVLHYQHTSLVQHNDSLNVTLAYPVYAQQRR
Test method notes: PI3Kδ Scintillation Proximity Assay
Reported conditions: read-out: PI3K-delta SPA IC50
Counter-ions that a name gives are not always drawn.
Reported metric: IC50

>  <Compound>
NC(=O)Cn1cc(-c2ccnc(-c3ncc(-c4ccccc4)[nH]3)c2)cn1 [Example 48, trifluoroacetate salt]

>  <Tested system>
PI3Kδ (p110δ/p85α) Recombinant Human Protein (Homo sapiens (Human), UniProt O00329)

>  <Reported metric>
IC50

>  <Test result>
> 500 nM

$$$$
>  <Compound>
O=C(Nc1cncc(-c2ccnc(-c3ncc(-c4ccccc4)[nH]3)c2)c1)c1ccc(Cl)cc1

>  <Tested system>
PI3Kδ (p110δ/p85α) Recombinant Human Protein (Homo sapiens (Human), UniProt O00329)

>  <Reported metric>
IC50

>  <Test result>
≤ 500 nM

$$$$
>  <Compound>
Cc1nc(-c2cc(-c3cncc(C(=O)N4CC(C#N)C4)c3)ccn2)[nH]c1C [Example 153, trifluoroacetate salt]

>  <Tested system>
PI3Kδ (p110δ/p85α) Recombinant Human Protein (Homo sapiens (Human), UniProt O00329)

>  <Reported metric>
IC50

>  <Test result>
≤ 50 nM

$$$$
>  <Compound>
c1ccc(-c2cnc(-c3cc(-c4ccc(N5CCOCC5)nc4)ccn3)[nH]2)cc1 [Example 41, trifluoroacetate salt]

>  <Tested system>
PI3Kδ (p110δ/p85α) Recombinant Human Protein (Homo sapiens (Human), UniProt O00329)

>  <Reported metric>
IC50

>  <Test result>
≤ 50 nM

$$$$

----------
Tested system: PI3Kδ (p110δ/p85α) Recombinant Human Protein (Homo sapiens (Human), UniProt O00329)
Test method notes: PI3Kδ Scintillation Proximity Assay
Reported conditions: read-out: PI3K-delta SPA IC50
Counter-ions that a name gives are not always drawn.

>  <Compound>
Cc1[nH]c(-c2cc(-c3cncc(N4CCOCC4)c3)ccn2)nc1C(=O)N[C@@H]1CCN(Cc2ccccc2)C1 [Example 280, trifluoroacetate salt]

>  <Tested system>
PI3Kδ (p110δ/p85α) Recombinant Human Protein (Homo sapiens (Human), UniProt O00329)

>  <IC50>
≤ 50 nM

$$$$
>  <Compound>
Cc1nc(-c2cc(-c3cncc(C(=O)N(C)CC4(CO)CC4)c3)ccn2)[nH]c1C [Example 205, trifluoroacetate salt]

>  <Tested system>
PI3Kδ (p110δ/p85α) Recombinant Human Protein (Homo sapiens (Human), UniProt O00329)

>  <IC50>
≤ 100 nM

$$$$
>  <Compound>
Cc1nc(-c2cc(-c3cncc(C(=O)N4CCN(C5CCN(C)CC5)CC4)c3)ccn2)[nH]c1C

>  <Tested system>
PI3Kδ (p110δ/p85α) Recombinant Human Protein (Homo sapiens (Human), UniProt O00329)

>  <IC50>
≤ 100 nM

$$$$
>  <Compound>
CCc1[nH]c(-c2cc(-c3cncc(N4CCOCC4)c3)ccn2)nc1C

>  <Tested system>
PI3Kδ (p110δ/p85α) Recombinant Human Protein (Homo sapiens (Human), UniProt O00329)

>  <IC50>
≤ 100 nM

$$$$

----------
Listed next: entries and their corresponding IC50.
Tested system: PI3Kδ (p110δ/p85α) Recombinant Human Protein (Homo sapiens (Human), UniProt O00329)
Test method notes: PI3Kδ Scintillation Proximity Assay
Reported conditions: read-out: PI3K-delta SPA IC50
Counter-ions that a name gives are not always drawn.

>  <Compound>
CN1CCN(c2cncc(-c3ccnc(-c4ncc(-c5ccccc5)[nH]4)c3)c2)CC1 [Example 37, trifluoroacetate salt]

>  <Tested system>
PI3Kδ (p110δ/p85α) Recombinant Human Protein (Homo sapiens (Human), UniProt O00329)

>  <IC50>
> 500 nM

$$$$
>  <Compound>
Cc1nc(-c2cc(-c3cncc(C(=O)N(C)CCO)c3)ccn2)[nH]c1C [Example 201, trifluoroacetate salt]

>  <Tested system>
PI3Kδ (p110δ/p85α) Recombinant Human Protein (Homo sapiens (Human), UniProt O00329)

>  <IC50>
≤ 500 nM

$$$$
>  <Compound>
CCOC(=O)Nc1cncc(-c2ccnc(-c3ncc(-c4ccccc4)[nH]3)c2)c1 [Example 140, Trifluoroacetate Salt]

>  <Tested system>
PI3Kδ (p110δ/p85α) Recombinant Human Protein (Homo sapiens (Human), UniProt O00329)

>  <IC50>
≤ 50 nM

$$$$
>  <Compound>
Cn1ccnc1-c1ccnc(-c2ncc(-c3ccccc3)[nH]2)c1 [Example 16, trifluoroacetate salt]

>  <Tested system>
PI3Kδ (p110δ/p85α) Recombinant Human Protein (Homo sapiens (Human), UniProt O00329)

>  <IC50>
> 500 nM

$$$$
>  <Compound>
O=S(=O)(c1ccccc1)N1CCC(c2c[nH]c(-c3cc(-c4cnn(Cc5ccc(Cl)cc5)c4)ccn3)n2)C1 (stereo not shown) [Example 305, trifluoroacetate salt]

>  <Tested system>
PI3Kδ (p110δ/p85α) Recombinant Human Protein (Homo sapiens (Human), UniProt O00329)

>  <IC50>
≤ 500 nM

$$$$
>  <Compound>
Cc1[nH]c(-c2cc(-c3cncc(N4CCOCC4)c3)ccn2)nc1CN1CCOCC1

>  <Tested system>
PI3Kδ (p110δ/p85α) Recombinant Human Protein (Homo sapiens (Human), UniProt O00329)

>  <IC50>
≤ 100 nM

$$$$
>  <Compound>
Cc1nc(-c2cc(-c3cncc(N4CC[C@H](O)C4)c3)ccn2)[nH]c1C

>  <Tested system>
PI3Kδ (p110δ/p85α) Recombinant Human Protein (Homo sapiens (Human), UniProt O00329)

>  <IC50>
≤ 500 nM

$$$$
>  <Compound>
Cc1[nH]c(-c2cc(-c3cncc(N4CCOCC4)c3)ccn2)nc1C(=O)N(C)C1CCOC1 (racemic)

>  <Tested system>
PI3Kδ (p110δ/p85α) Recombinant Human Protein (Homo sapiens (Human), UniProt O00329)

>  <IC50>
≤ 500 nM

$$$$
>  <Compound>
c1ccc(-c2cnc(-c3cc(-c4cncc(N5CCOCC5)c4)ccn3)[nH]2)cc1 [Example 18, trifluoroacetate salt]

>  <Tested system>
PI3Kδ (p110δ/p85α) Recombinant Human Protein (Homo sapiens (Human), UniProt O00329)

>  <IC50>
≤ 50 nM

$$$$
>  <Compound>
CS(=O)(=O)c1cncc(-c2ccnc(-c3ncc(C(F)(F)F)[nH]3)c2)c1 [Example 109, trifluoroacetate salt]

>  <Tested system>
PI3Kδ (p110δ/p85α) Recombinant Human Protein (Homo sapiens (Human), UniProt O00329)

>  <IC50>
≤ 50 nM

$$$$
>  <Compound>
CN1CCC(CNc2cncc(-c3ccnc(-c4ncc(-c5ccccc5)[nH]4)c3)c2)CC1 [Example 144, trifluoroacetate salt]

>  <Tested system>
PI3Kδ (p110δ/p85α) Recombinant Human Protein (Homo sapiens (Human), UniProt O00329)

>  <IC50>
≤ 100 nM

$$$$
>  <Compound>
Cc1cnc(-c2cc(-c3cncc(N4CCOCC4)c3)ccn2)[nH]1

>  <Tested system>
PI3Kδ (p110δ/p85α) Recombinant Human Protein (Homo sapiens (Human), UniProt O00329)

>  <IC50>
≤ 500 nM

$$$$
>  <Compound>
N#Cc1ccc(C(=O)Nc2cncc(-c3ccnc(-c4ncc(-c5ccccc5)[nH]4)c3)c2)cc1

>  <Tested system>
PI3Kδ (p110δ/p85α) Recombinant Human Protein (Homo sapiens (Human), UniProt O00329)

>  <IC50>
≤ 500 nM

$$$$
>  <Compound>
Cc1nc(-c2cc(-c3cncc(C(=O)N4CCC(c5ccncc5)C4)c3)ccn2)[nH]c1C (racemic)

>  <Tested system>
PI3Kδ (p110δ/p85α) Recombinant Human Protein (Homo sapiens (Human), UniProt O00329)

>  <IC50>
≤ 500 nM

$$$$
>  <Compound>
CS(=O)(=O)N1CCC(c2c[nH]c(-c3cc(-c4cnn(Cc5ccc(Cl)cc5)c4)ccn3)n2)C1 (single isomer, unassigned) [Example 304, trifluoroacetate salt]

>  <Tested system>
PI3Kδ (p110δ/p85α) Recombinant Human Protein (Homo sapiens (Human), UniProt O00329)

>  <IC50>
≤ 500 nM

$$$$
>  <Compound>
CCOC(=O)c1nc(-c2cc(-c3cncc(S(C)(=O)=O)c3)ccn2)[nH]c1C

>  <Tested system>
PI3Kδ (p110δ/p85α) Recombinant Human Protein (Homo sapiens (Human), UniProt O00329)

>  <IC50>
≤ 50 nM

$$$$
>  <Compound>
CNC(=O)c1nc(-c2cc(-c3cncc(S(C)(=O)=O)c3)ccn2)[nH]c1C [Example 250, trifluoroacetate salt]

>  <Tested system>
PI3Kδ (p110δ/p85α) Recombinant Human Protein (Homo sapiens (Human), UniProt O00329)

>  <IC50>
≤ 50 nM

$$$$
>  <Compound>
CO[C@H]1CCN(C(=O)c2cncc(-c3ccnc(-c4nc(C)c(C)[nH]4)c3)c2)C1 [Example 212B, trifluoroacetate salt]

>  <Tested system>
PI3Kδ (p110δ/p85α) Recombinant Human Protein (Homo sapiens (Human), UniProt O00329)

>  <IC50>
≤ 100 nM

$$$$
>  <Compound>
CS(=O)(=O)c1cncc(-c2ccnc(-c3nc(C4CCCCC4)c(N)[nH]3)c2)c1 [Example 120, Trifluoroacetate Salt]

>  <Tested system>
PI3Kδ (p110δ/p85α) Recombinant Human Protein (Homo sapiens (Human), UniProt O00329)

>  <IC50>
≤ 50 nM

$$$$
>  <Compound>
Cc1[nH]c(-c2cc(-c3cncc(N4CCOCC4)c3)ccn2)nc1Nc1ccnnc1 [Example 308, trifluoroacetate salt]

>  <Tested system>
PI3Kδ (p110δ/p85α) Recombinant Human Protein (Homo sapiens (Human), UniProt O00329)

>  <IC50>
≤ 50 nM

$$$$
>  <Compound>
CCc1[nH]c(-c2cc(-c3cncc(S(C)(=O)=O)c3)ccn2)nc1C

>  <Tested system>
PI3Kδ (p110δ/p85α) Recombinant Human Protein (Homo sapiens (Human), UniProt O00329)

>  <IC50>
≤ 50 nM

$$$$
>  <Compound>
Cc1nc(-c2cc(C3=CCCN(Cc4ccccc4)C3)ccn2)[nH]c1C [Example 223, trifluoroacetate salt]

>  <Tested system>
PI3Kδ (p110δ/p85α) Recombinant Human Protein (Homo sapiens (Human), UniProt O00329)

>  <IC50>
> 500 nM

$$$$
>  <Compound>
CC(=O)Nc1cncc(-c2ccnc(-c3ncc(-c4ccccc4)[nH]3)c2)c1 [Example 17, trifluoroacetate salt]

>  <Tested system>
PI3Kδ (p110δ/p85α) Recombinant Human Protein (Homo sapiens (Human), UniProt O00329)

>  <IC50>
≤ 50 nM

$$$$
>  <Compound>
Cc1nc(-c2cc(-c3cncc(NC(C)c4ccccc4)c3)ccn2)[nH]c1C (racemic) [Example 145C, trifluoroacetate salt]

>  <Tested system>
PI3Kδ (p110δ/p85α) Recombinant Human Protein (Homo sapiens (Human), UniProt O00329)

>  <IC50>
≤ 50 nM

$$$$
>  <Compound>
Cc1[nH]c(-c2cc(-c3cncc(N4CCOCC4)c3)ccn2)nc1C(=O)N[C@@H]1CCOC1 [Example 270, trifluoroacetate salt]

>  <Tested system>
PI3Kδ (p110δ/p85α) Recombinant Human Protein (Homo sapiens (Human), UniProt O00329)

>  <IC50>
≤ 50 nM

$$$$
>  <Compound>
Cc1[nH]c(-c2cc(-c3cncc(S(C)(=O)=O)c3)ccn2)nc1C(=O)N1CC(O)C1

>  <Tested system>
PI3Kδ (p110δ/p85α) Recombinant Human Protein (Homo sapiens (Human), UniProt O00329)

>  <IC50>
≤ 50 nM

$$$$
>  <Compound>
Cc1nc(-c2cc(C3=CCN(Cc4ccc(Cl)cc4)C3)ccn2)[nH]c1C [Example 229, trifluoroacetate salt]

>  <Tested system>
PI3Kδ (p110δ/p85α) Recombinant Human Protein (Homo sapiens (Human), UniProt O00329)

>  <IC50>
> 500 nM

$$$$
>  <Compound>
COCCCNCc1nc(-c2cc(-c3cncc(N4CCOCC4)c3)ccn2)[nH]c1C

>  <Tested system>
PI3Kδ (p110δ/p85α) Recombinant Human Protein (Homo sapiens (Human), UniProt O00329)

>  <IC50>
≤ 50 nM

$$$$
